Molecular target: T1, Bcat-Halo (UniProt P35222 1-781)
T1 sequence (looked up): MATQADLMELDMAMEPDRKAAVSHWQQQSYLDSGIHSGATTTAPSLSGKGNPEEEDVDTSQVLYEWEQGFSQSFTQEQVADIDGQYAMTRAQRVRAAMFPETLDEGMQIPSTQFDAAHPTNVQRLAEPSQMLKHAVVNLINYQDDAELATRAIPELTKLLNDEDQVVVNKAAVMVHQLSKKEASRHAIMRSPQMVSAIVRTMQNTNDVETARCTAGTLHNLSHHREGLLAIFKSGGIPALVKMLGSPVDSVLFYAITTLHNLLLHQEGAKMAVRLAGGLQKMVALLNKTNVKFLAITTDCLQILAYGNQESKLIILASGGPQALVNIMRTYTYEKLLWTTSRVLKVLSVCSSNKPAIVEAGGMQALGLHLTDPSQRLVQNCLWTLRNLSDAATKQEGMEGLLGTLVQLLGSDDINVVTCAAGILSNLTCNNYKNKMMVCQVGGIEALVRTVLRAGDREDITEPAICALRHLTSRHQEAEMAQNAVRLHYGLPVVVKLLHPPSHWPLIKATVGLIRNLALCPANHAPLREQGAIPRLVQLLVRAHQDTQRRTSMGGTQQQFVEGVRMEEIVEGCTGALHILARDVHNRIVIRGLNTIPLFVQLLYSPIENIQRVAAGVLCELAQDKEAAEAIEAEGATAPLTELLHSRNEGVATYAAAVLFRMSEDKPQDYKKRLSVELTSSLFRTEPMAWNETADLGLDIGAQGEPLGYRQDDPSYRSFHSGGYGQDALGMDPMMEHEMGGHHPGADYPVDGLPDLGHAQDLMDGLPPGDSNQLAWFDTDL
Assay: cell-based or functional assay
Starred links: 1 amine or outer side, 2 acyl side, 3 side chain; linkers in the order of their positions; H or OH if unused. Positions of bridges follow the written chain, without caps; N, C: chain ends. Non-standard residues stand in square brackets, D forms with d. Primed or numbered codes have the meaning given here. *: point of attachment. PyrS2″ = (S)-3-amino-1-((pent-4-en-1-yloxy)carbonyl)pyrrolidine-3-carboxylic acid (stapling residue), C=CCCCOC(=O)N1CC[C@@](N[*:1])(C(=O)[*:2])C1; B5(4) = 2,2-bis(4-pentenyl)glycine = 2-amino-2-(pent-4-en-1-yl)hept-6-enoic acid (stitching residue), C=CCCCC(CCCC=C)(N[*:1])C(=O)[*:2]; (Me2NPrPip)GlnR″ = Glu side chain amide with 4-(3-(dimethylamino)propyl)piperazine, CN(C)CCCN1CCN(C(=O)CC[C@H](N[*:1])C(=O)[*:2])CC1; (2OxoPpz)GlnR = Glu side chain amide with 2-oxopiperazine (3-oxopiperazin-1-yl), O=C1CN(C(=O)CC[C@H](N[*:1])C(=O)[*:2])CCN1; B5(3) = 2,2-bis(4-pentenyl)glycine (stitching residue), C=CCCCC(CCCC=C)(N[*:1])C(=O)[*:2]; Phe(3-COOH) = N[C@@H](Cc1cccc(C(=O)O)c1)C(=O)O; 2F3MeF = Cc1cccc(C[C@H](N[*:1])C(=O)[*:2])c1F; Phe(2-Cl) = N[C@@H](Cc1ccccc1Cl)C(=O)O; Bta = N[C@@H](Cc1csc2ccccc12)C(=O)O; αAllylPro = C=CC[C@@]1(C(=O)O)CCCN1; tBuAla = CC(C)(C)C[C@H](N)C(=O)O; Moc = COC(=O)*
READOUT NAME: NanoBRET Abs IC50 (µM)
Just the number in µM, nothing appended.

[in] For the binder shown here, Ac-[αAllylPro]D[tBuAla][B5(4)]D[Phe(3-COOH)][(2OxoPpz)GlnR]AFL[PyrS2″][2F3MeF][Bta]A-NH2 (staple 1-4, 4-11) [I-2318] , give the reported NanoBRET Abs IC50.
[out] 1.8

[in] Now consider Moc-[αAllylPro]D[tBuAla][B5(3)]D[Phe(3-COOH)]AAFL[PyrS2″][Phe(2-Cl)][Bta]A-NH2 (staple 1-4, 4-11) [I-2324] and answer again.
[out] 14.8

[in] Now consider Ac-[αAllylPro]D[tBuAla][B5(4)]D[Phe(3-COOH)][(Me2NPrPip)GlnR″]AFL[PyrS2″][2F3MeF][Bta]A-NH2 (staple 1-4, 4-11) [I-2323] and answer again.
[out] 17.7

[in] Now consider Ac-[αAllylPro]D[tBuAla][B5(4)]D[Phe(3-COOH)][(4Pippip)GlnR]AFL[PyrS2″][2F3MeF][Bta]A-NH2 (staple 1-4, 4-11) [I-2317] and answer again.
[out] 18.8
